Biological target: NEDD8 activating enzyme (Homo sapiens, UniProt Q8TBC4)
Sequence (Q8TBC4 whole entry): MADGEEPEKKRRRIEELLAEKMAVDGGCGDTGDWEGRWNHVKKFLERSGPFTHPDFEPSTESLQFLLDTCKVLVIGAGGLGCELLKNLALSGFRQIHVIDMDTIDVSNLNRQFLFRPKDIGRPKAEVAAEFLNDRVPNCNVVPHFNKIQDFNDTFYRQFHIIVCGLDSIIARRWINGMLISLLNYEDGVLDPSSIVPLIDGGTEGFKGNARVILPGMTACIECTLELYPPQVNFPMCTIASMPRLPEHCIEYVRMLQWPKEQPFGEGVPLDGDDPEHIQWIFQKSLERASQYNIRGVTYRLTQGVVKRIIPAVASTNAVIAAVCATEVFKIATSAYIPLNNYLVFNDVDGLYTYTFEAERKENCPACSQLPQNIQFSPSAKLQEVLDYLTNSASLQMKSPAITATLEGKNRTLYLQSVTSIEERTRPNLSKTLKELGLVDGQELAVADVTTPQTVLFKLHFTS
Sequence (Q13564 whole entry, further chain): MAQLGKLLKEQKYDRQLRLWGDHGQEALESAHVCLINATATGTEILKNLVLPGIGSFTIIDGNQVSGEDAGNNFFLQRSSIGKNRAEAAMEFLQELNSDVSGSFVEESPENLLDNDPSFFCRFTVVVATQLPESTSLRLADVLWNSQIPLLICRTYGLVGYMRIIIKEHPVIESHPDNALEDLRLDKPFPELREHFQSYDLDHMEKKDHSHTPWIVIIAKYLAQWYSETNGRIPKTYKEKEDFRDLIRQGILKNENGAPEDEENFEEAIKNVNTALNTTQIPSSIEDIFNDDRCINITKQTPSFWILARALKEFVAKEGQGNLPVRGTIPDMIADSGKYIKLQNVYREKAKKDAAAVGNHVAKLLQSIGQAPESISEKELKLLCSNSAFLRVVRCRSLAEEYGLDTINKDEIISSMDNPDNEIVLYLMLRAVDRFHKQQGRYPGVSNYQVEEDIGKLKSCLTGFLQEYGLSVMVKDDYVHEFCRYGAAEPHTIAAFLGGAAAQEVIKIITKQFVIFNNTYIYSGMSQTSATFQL
Assay: Binding affinity to biotin-labeled GST-tagged NAE (unknown origin) incubated for 1 hr by SPR assay
measure: Kd (µM)
Give the value, in units of µM, as a plain number.

What does the record list as Kd for CCOc1nc2cccc(C(=O)OC(C)OC(=O)OC3CCCCC3)c2n1Cc1ccc(-c2ccccc2-c2nnn[nH]2)cc1 (stereo unspecified) ?
195

Origin of measurements: ChEMBL document CHEMBL4312031
